Target: GAL4 DBD (1-147)-CfEcR(DEF)/VP16AD-βRXREF-LmUSPEF (Choristoneura fumiferana, UniProt O77240)
Test: cell-based
Conditions: 33 uM ligand; RLU ligand treated / RLU DMSO treated cells; average of two wells
Listed next: entries and their corresponding Fold Induction, 27-63 Assay, 33 uM.
measured.metric: Fold Induction, 27-63 Assay, 33 uM

CCc1c(C(=O)NN(C(=O)c2ccccc2OC)C(C)(C)C)ccc2c1OCCO2 [RG-115244]
1847
COc1cccc(C(=O)NN(C(=O)c2ccc(C(F)(F)F)nc2OC)C(C)(C)C)c1C
1837
CCc1c(C(=O)NN(C(=O)c2cc(OC)c(C)c(OC)c2)C(C)(C)C)ccc2c1OCCO2
4096
COc1cccc(C(=O)NN(C(=O)c2cccnc2Cl)C(C)(C)C)c1C
1239
COc1ccc(Cl)cc1C(=O)N(NC(=O)c1ccc2c(c1C)CCCO2)C(C)(C)C
1068
CCc1cccc(C(=O)NN(C(=O)c2cc(C)cc(C)c2)C(C)(C)C)c1C
2073
CCc1ccc(C(=O)NN(C(=O)c2ccccc2CC)C(C)(C)C)cc1
1265
CCc1c(C(=O)NN(C(=O)c2ccc(F)c(C(F)(F)F)c2)C(C)(C)C)ccc2c1OCCO2
422
Cc1cc(C)cc(C(=O)N(NC(=O)c2cc3c(cc2C)OCO3)C(C)(C)C)c1
1743
Cc1ccc(F)c(C(=O)N(NC(=O)c2ccc3c(c2C)CCCO3)C(C)(C)C)c1
1536
CCc1c(C(=O)NN(C(=O)c2cccc(OC)c2)C(C)(C)C)ccc2c1OCCO2
1209
CCc1ccc(C(=O)NN(C(=O)c2cc(C)cc(C)c2)C(c2ccccc2)C(C)(C)C)cc1 (centres unmarked)
645
CCc1ccc(C(=O)NN(C(=O)c2cc(C)cc(C)c2)C(C)(C)C)cc1Cl
1464
CC(C)(C)N(NC(=O)c1c(F)cccc1F)C(=O)c1cc(Cl)cc(Cl)c1
1244
CCc1c(OC)cccc1C(=O)NN(C(=O)c1cc(C)cc(C)c1)C(C)(C)C=NNC(N)=O
832
COc1cccc(C(=O)NN(C(=O)c2cc(C)cc(C)c2)C(C)(C)C)c1[N+](=O)[O-]
2286
Cc1c(C(=O)NN(C(=O)c2cc(F)cc(F)c2)C(C)(C)C)ccc2c1CCCO2
1279
